assay: NCI Yeast Anticancer Drug Screen. Data for the rad50 strain (AID 155); settings: S. cerevisiae rad50 strain growth inhibition; at 50.0 µM; hits give high values
Compounds without any hit were thinned out: in the full panel of roughly 79,000, 15% have a hit. Where a SMILES comes first, the peptide text is derived from it. [ ]: non-standard residue; d: D form. The star is where a group is joined. Nle = CCCC[CH](N)C(=O)O; Cbz = O=C(OCc1ccccc1)*
Respond with condition met for growth inhibition values of 10% and above, condition not met for values below.

Please review the entries below; each comes with its answer.
Cc1ccc(NC(=O)NCc2ccncc2)cc1NC(=O)NCc1ccncc1
condition met
CCCCC(NC(=O)C(Cc1ccccc1)NC(=O)OCc1ccccc1)C(=O)O (stereo not drawn) (Cbz-Phe-[Nle]-OH; configuration not given here)
condition not met
COc1ccc2ccccc2c1C(Cc1ccccc1)NCCO (stereo not given)
condition not met
CCOC(=O)c1ccc(-c2ccc(C(=O)OCC)cc2[N+](=O)[O-])c([N+](=O)[O-])c1
condition met

Q: Please tell me: is the compound Cc1ccc(C(=O)Nc2ccc(CP(=O)(O)O)cc2CP(=O)(O)O)cc1NC(=O)c1cccc(N)c1 at or over 10% in terms of growth inhibition?
A: condition not met

Q: Please tell me: is the compound Cc1ccc(N(C)C)cc1 at or over 10% in terms of growth inhibition?
A: condition not met

Taken from PubChem BioAssay (NCI).
